FYI, the data here is from the supplement of paper PMC9112550.

# Test system: Escherichia coli TOP10
# ASSAY REMARKS: shrunken log2 fold change of peptide-encoding DNA abundance (4.5 h post-induction vs induction); higher = less antimicrobial activity (less host growth inhibition)
# APPLIED CONDITIONS: time post-induction: 4.5 h; library: site-saturation at positions 5, 18, 19, 20
METRIC NAME: shrunken log2 fold change

sequence_input=RRIRWRPPRLPRPRPRPKTHPRP subject_of_test="Escherichia coli TOP10" endpoint_value=0.293
sequence_input=RRIRWRPPRLPRPRPRPSKKPRP subject_of_test="Escherichia coli TOP10" endpoint_value=0.0769
sequence_input=RRIRPRPPRLPRPRPRPPIYPRP subject_of_test="Escherichia coli TOP10" endpoint_value=0.0772
sequence_input=RRIRMRPPRLPRPRPRPMGLPRP subject_of_test="Escherichia coli TOP10" endpoint_value=0.0299
sequence_input=RRIRVRPPRLPRPRPRPTGVPRP subject_of_test="Escherichia coli TOP10" endpoint_value=0.0149
sequence_input=RRIRYRPPRLPRPRPRPVNFPRP subject_of_test="Escherichia coli TOP10" endpoint_value=0.00408
sequence_input=RRIRARPPRLPRPRPRPKGCPRP subject_of_test="Escherichia coli TOP10" endpoint_value=1.4
sequence_input=RRIRGRPPRLPRPRPRPGTRPRP subject_of_test="Escherichia coli TOP10" endpoint_value=0.703
sequence_input=RRIRKRPPRLPRPRPRPGWVPRP subject_of_test="Escherichia coli TOP10" endpoint_value=0.573
sequence_input=RRIRVRPPRLPRPRPRPNIIPRP subject_of_test="Escherichia coli TOP10" endpoint_value=-0.303

###

# System: Escherichia coli TOP10;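 also: peptides expressed intracellularly from a pBAD plasmid library in pooled LB shake-flask culture, induced with 0.3% L-arabinose, DNA abundance read by NGS, three biological replicates, DESeq2 with apeglm shrinkage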
# ASSAY REMARKS: shrunken log2 fold change of peptide-encoding DNA abundance (4.5 h post-induction vs induction); higher = less antimicrobial activity (less host growth inhibition)
# APPLIED CONDITIONS: time post-induction: 4.5 h; library: site-saturation at positions 5, 18, 19, 20
Mark Condition met for reported shrunken log2 fold change of -0.1 or greater; mark Condition not met for anything smaller.

sequence_input=RRIRGRPPRLPRPRPRPDQQPRP qualitative_label="Condition met"
sequence_input=RRIRNRPPRLPRPRPRPNRLPRP qualitative_label="Condition met"
sequence_input=RRIRMRPPRLPRPRPRPDKGPRP qualitative_label="Condition met"
sequence_input=RRIRTRPPRLPRPRPRPSTHPRP qualitative_label="Condition not met"
sequence_input=RRIRMRPPRLPRPRPRPSDLPRP qualitative_label="Condition met"
sequence_input=RRIRQRPPRLPRPRPRPRDAPRP qualitative_label="Condition met"
sequence_input=RRIRARPPRLPRPRPRPNHYPRP qualitative_label="Condition not met"
sequence_input=RRIRSRPPRLPRPRPRPQHCPRP qualitative_label="Condition met"
sequence_input=RRIRDRPPRLPRPRPRPAQGPRP qualitative_label="Condition met"
sequence_input=RRIRVRPPRLPRPRPRPNYSPRP qualitative_label="Condition not met"
sequence_input=RRIRGRPPRLPRPRPRPTDPPRP qualitative_label="Condition met"
sequence_input=RRIRHRPPRLPRPRPRPIPIPRP qualitative_label="Condition not met"
sequence_input=RRIRFRPPRLPRPRPRPKRLPRP qualitative_label="Condition met"
sequence_input=RRIRHRPPRLPRPRPRPSLVPRP qualitative_label="Condition not met"
sequence_input=RRIRNRPPRLPRPRPRPNCTPRP qualitative_label="Condition not met"
sequence_input=RRIRHRPPRLPRPRPRPCPTPRP qualitative_label="Condition not met"
sequence_input=RRIRDRPPRLPRPRPRPTAFPRP qualitative_label="Condition met"
sequence_input=RRIRFRPPRLPRPRPRPWSWPRP qualitative_label="Condition not met"
sequence_input=RRIRIRPPRLPRPRPRPKSYPRP qualitative_label="Condition not met"
sequence_input=RRIRSRPPRLPRPRPRPFVVPRP qualitative_label="Condition met"
sequence_input=RRIRPRPPRLPRPRPRPNRDPRP qualitative_label="Condition not met"
sequence_input=RRIRFRPPRLPRPRPRPTLCPRP qualitative_label="Condition met"
sequence_input=RRIRFRPPRLPRPRPRPGKLPRP qualitative_label="Condition met"
sequence_input=RRIRTRPPRLPRPRPRPTSHPRP qualitative_label="Condition not met"
sequence_input=RRIRCRPPRLPRPRPRPHTCPRP qualitative_label="Condition met"
sequence_input=RRIRVRPPRLPRPRPRPQEHPRP qualitative_label="Condition not met"
sequence_input=RRIRQRPPRLPRPRPRPYGQPRP qualitative_label="Condition not met"
sequence_input=RRIRARPPRLPRPRPRPVYHPRP qualitative_label="Condition not met"
sequence_input=RRIRGRPPRLPRPRPRPHIYPRP qualitative_label="Condition met"
sequence_input=RRIRMRPPRLPRPRPRPLIPPRP qualitative_label="Condition met"
sequence_input=RRIRARPPRLPRPRPRPYYTPRP qualitative_label="Condition not met"
sequence_input=RRIRMRPPRLPRPRPRPDTPPRP qualitative_label="Condition met"
sequence_input=RRIRWRPPRLPRPRPRPPQCPRP qualitative_label="Condition met"
sequence_input=RRIRRRPPRLPRPRPRPKKHPRP qualitative_label="Condition met"
sequence_input=RRIRERPPRLPRPRPRPSQFPRP qualitative_label="Condition not met"
sequence_input=RRIRGRPPRLPRPRPRPCKSPRP qualitative_label="Condition met"
sequence_input=RRIRMRPPRLPRPRPRPHQMPRP qualitative_label="Condition met"
sequence_input=RRIRYRPPRLPRPRPRPIPDPRP qualitative_label="Condition met"
sequence_input=RRIRGRPPRLPRPRPRPGAIPRP qualitative_label="Condition met"
sequence_input=RRIRRRPPRLPRPRPRPTGTPRP qualitative_label="Condition met"
